Values compiled from ChEMBL document CHEMBL1145861.

MEASURED TARGET: UniProtKB P30307
PROTOCOL DESCRIPTION: Inhibitory activity against Cell division cycle 25 degree C was determined
MEASUREMENT LABEL: Ki (µM)
Give a bare numeral; the unit µM is implied.

Per the record, C=CCOC(=O)N[C@@H](Cc1ccc(N(C(=O)C(=O)O)c2ccccc2C(=O)O)cc1)C(=O)NCCCCOc1cccc(O)c1C(=O)OC has Ki of 178

###

MEASURED TARGET: Tyrosine-protein phosphatase non-receptor type 1 (Homo sapiens)
Sequence (P18031 whole entry): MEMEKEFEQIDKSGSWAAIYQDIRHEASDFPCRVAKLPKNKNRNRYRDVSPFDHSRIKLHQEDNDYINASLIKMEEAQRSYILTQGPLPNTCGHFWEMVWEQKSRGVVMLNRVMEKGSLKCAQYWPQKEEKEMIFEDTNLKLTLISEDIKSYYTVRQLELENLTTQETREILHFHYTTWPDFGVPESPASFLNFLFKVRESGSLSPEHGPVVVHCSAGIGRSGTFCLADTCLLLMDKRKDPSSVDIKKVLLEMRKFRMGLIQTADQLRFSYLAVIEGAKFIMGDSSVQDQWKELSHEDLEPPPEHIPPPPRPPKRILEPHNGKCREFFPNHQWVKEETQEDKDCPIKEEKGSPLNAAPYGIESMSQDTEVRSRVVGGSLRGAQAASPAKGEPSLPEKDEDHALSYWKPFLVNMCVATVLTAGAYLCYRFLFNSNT
PROTOCOL DESCRIPTION: Protein-tyrosine phosphatase 1B (PTP 1B) site 2 Ligands were identified using [13C]-labeled protein and their Dissociation Constants were determined
MEASUREMENT LABEL: Kd (µM)
Give a bare numeral; the unit µM is implied.

Per the record, Cc1cc(C)c2nc(C(=O)O)ccc2c1O has Kd of 15600

Per the record, N#Cc1cc(C(=O)O)c(O)c(Br)c1N has Kd of 910

Per the record, Nc1ccc(C(=O)O)c(O)c1 has Kd of 1200

###

MEASURED TARGET: Protein phosphatase 3 catalytic subunit alpha (Homo sapiens)
PROTOCOL DESCRIPTION: Inhibitory activity against (calcineurin) was determined
pKi: −log10 of the molar value.
MEASUREMENT LABEL: pKi

Per the record, CCc1cc(CC(NC(C)=O)C(=O)NCCCCOc2cc(Cl)cc(O)c2C(=O)OC)ccc1N(C(=O)C(=O)O)c1ccccc1C(=O)O (configuration not stated) has pKi of < 5.52

Per the record, C=CCOC(=O)N[C@@H](Cc1ccc(N(C(=O)C(=O)O)c2ccccc2C(=O)O)cc1)C(=O)NCCCCOc1cccc(O)c1C(=O)OC has pKi of < 3.70

###

MEASUREMENT LABEL: log10(Ki) (log10 of the value in nM)
// do not treat as linear: log10 of Ki, unit nM

Per the reported UniProt P17706 data, NC(=O)[C@H](Cc1ccc(C(F)(F)P(=O)(O)O)cc1)NC(=O)[C@H](CC(=O)O)NC(=O)Cc1ccc(C(F)(F)P(=O)(O)O)cc1 has log10(Ki) of 1.38

Per the reported UniProt P17706 data, CCc1cc(CC(NC(C)=O)C(=O)NCCCCOc2cc(Cl)cc(O)c2C(=O)OC)ccc1N(C(=O)C(=O)O)c1ccccc1C(=O)O (configuration not stated) has log10(Ki) of 2.36

Per the reported UniProt P17706 data, CCc1cc(CC(NC(C)=O)C(=O)NCCCCOc2cccc(O)c2C(=O)OC)ccc1N(C(=O)C(=O)O)c1ccccc1C(=O)O (configuration not stated) has log10(Ki) of 1.81

Per the reported UniProt P17706 data, C=CCOC(=O)N[C@@H](Cc1ccc(N(C(=O)C(=O)O)c2ccccc2C(=O)O)cc1)C(=O)NCCCCOc1cccc(O)c1C(=O)OC has log10(Ki) of 2.67

Per the reported UniProt P17706 data, CCc1cc(CC(NC(C)=O)C(=O)NCCCCOc2cccc(O)c2C(=O)O)ccc1N(C(=O)C(=O)O)c1ccccc1C(=O)O (configuration not stated) has log10(Ki) of 1.86

Per the reported UniProt P17706 data, CCc1cc(CC(NC(C)=O)C(=O)NCCCCOc2cccc(O)c2C(=O)NC)ccc1N(C(=O)C(=O)O)c1ccccc1C(=O)O (configuration not stated) has log10(Ki) of 2.92

Per the reported UniProt P17706 data, CCc1cc(CC(NC(C)=O)C(=O)NCCCCOc2cccc(O)c2[N+](=O)[O-])ccc1N(C(=O)C(=O)O)c1ccccc1C(=O)O (configuration not stated) has log10(Ki) of 2.08

###

MEASURED TARGET: M-phase inducer phosphatase 3 (Homo sapiens, UniProt P30307)
Sequence (P30307 whole entry): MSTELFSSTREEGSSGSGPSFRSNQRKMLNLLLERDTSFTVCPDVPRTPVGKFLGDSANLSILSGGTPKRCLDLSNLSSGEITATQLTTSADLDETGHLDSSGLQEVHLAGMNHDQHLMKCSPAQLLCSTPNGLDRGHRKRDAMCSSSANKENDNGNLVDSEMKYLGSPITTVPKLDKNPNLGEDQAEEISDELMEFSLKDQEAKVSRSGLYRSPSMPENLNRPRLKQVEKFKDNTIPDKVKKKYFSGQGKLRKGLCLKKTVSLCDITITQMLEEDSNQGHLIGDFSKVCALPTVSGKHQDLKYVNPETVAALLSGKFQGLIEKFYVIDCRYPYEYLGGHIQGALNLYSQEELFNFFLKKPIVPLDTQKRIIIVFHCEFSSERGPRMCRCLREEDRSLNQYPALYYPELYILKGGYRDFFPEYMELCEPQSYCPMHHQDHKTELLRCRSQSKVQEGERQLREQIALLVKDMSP
PROTOCOL DESCRIPTION: Inhibitory activity against cell division cycle 25 degree C (Cdc25 C) was determined
MEASUREMENT LABEL: Ki

Per the reported M-phase inducer phosphatase 3 (Homo sapiens, UniProt P30307) data, CCc1cc(CC(NC(C)=O)C(=O)NCCCCOc2cc(Cl)cc(O)c2C(=O)OC)ccc1N(C(=O)C(=O)O)c1ccccc1C(=O)O (stereo unspecified) has Ki of > 3 µM

###

pKi: −log10 of the molar value.
MEASUREMENT LABEL: pKi

Per the reported Receptor-type tyrosine-protein phosphatase C (Homo sapiens, UniProt P08575) data, CCc1cc(CC(NC(C)=O)C(=O)NCCCCOc2cc(Cl)cc(O)c2C(=O)OC)ccc1N(C(=O)C(=O)O)c1ccccc1C(=O)O (stereo unspecified) has pKi of < 5.52
